System tested: Cannabinoid receptor 2 (Homo sapiens, UniProt P34972)
Sequence (P34972 whole entry): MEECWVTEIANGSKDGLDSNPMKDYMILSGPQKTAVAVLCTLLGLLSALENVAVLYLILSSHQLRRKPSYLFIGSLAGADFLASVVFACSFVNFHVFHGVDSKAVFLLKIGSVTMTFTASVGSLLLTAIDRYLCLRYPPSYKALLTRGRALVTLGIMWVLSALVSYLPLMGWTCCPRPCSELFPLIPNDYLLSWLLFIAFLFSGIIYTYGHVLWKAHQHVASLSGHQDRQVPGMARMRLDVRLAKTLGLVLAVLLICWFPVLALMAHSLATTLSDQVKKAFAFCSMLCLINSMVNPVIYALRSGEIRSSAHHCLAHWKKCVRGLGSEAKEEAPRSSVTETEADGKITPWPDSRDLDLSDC
Assay notes: Displacement of [3H]WIN-55212-2 from human CB2 receptor expressed in CHO cells at 10 uM
Format: cell-based
Reported endpoint: Activity (%)

Please review the entries below; each comes with its answer.
O=C(NC1CC1)c1cnn(-c2ccc(Cl)cc2Cl)c1-c1ccc(Br)cc1 : 43
O=C(NC12CC3CC(CC(C3)C1)C2)c1cnn(-c2ccc(Cl)cc2Cl)c1-c1ccc(I)cc1 : 44
COc1ccc(-c2c(C(=O)NC3CCCCC3)cnn2-c2ccc(Cl)cc2Cl)cc1 : 76
O=C(NC1CC1)c1cnn(-c2ccc(Cl)cc2Cl)c1-c1ccc(Cl)cc1 : 30
O=C(NC1CC1)c1cnn(-c2ccc(Cl)cc2Cl)c1-c1ccc(F)cc1 : 7

I: O=C(NCCN1CCCCC1)c1cnn(-c2ccc(Cl)cc2Cl)c1-c1ccc(Cl)cc1
II: O=C(NN1CCCCCC1)c1cnn(-c2ccc(Cl)cc2Cl)c1-c1ccc(Cl)cc1
III: O=C(NC1CCCCC1)c1cnn(-c2ccc(Cl)cc2Cl)c1-c1ccc(Br)cc1
IV: CN1CCN(NC(=O)c2cnn(-c3ccc(Cl)cc3Cl)c2-c2ccc(Cl)cc2)CC1
Falling order of Activity, please. Hello, could you send the labels back in the order asked? Thank you.
II, III, I, IV
(II: 64%, III: 44%, I: 14%, IV: -23%)

1: Cc1ccc(-c2c(C(=O)NN3CCCCC3)cnn2-c2ccc(Cl)cc2Cl)cc1
2: Cc1ccc(-c2c(C(=O)NC3CCCCC3)cnn2-c2ccc(Cl)cc2Cl)cc1
Please state the entry with greater Activity among 1 and 2 . Choose, then provide that item's label.
2
(2: 46%, 1: 27%)
